Data origin, for the record: patent US12662451B2

Tested on: SW48 human colorectal cancer cells (MSI-H cancer cells)
Experiment: SW48 cell viability, CellTiter-Glo, 120 hours (Example B)
Conditions: Homo sapiens, SW48, 120 h, read-out: SW48 pCC50, SW48 cell viability, 120 hours incubation (converted); Table 2
Counter-ions that a name gives are not always drawn.
Entries annotated with measured log10 CC50
Hey, these are logged values: log10 of CC50, nM being the unit before logging.

# count of solved cases: 9
compound="Cc1nc2cc(S(=O)(=O)N(C)c3ccc([C@@H]4C[C@H](OC[C@H]5COCCO5)C[C@H](C(=O)Nc5ccc(C(F)(F)F)cc5F)[C@H]4C(=O)O)cc3)ccc2n1C (stereo in doubt) [Example 328]" parameter_measured="log10 CC50" observed_measurement=4.20
compound="Cc1nc2cc(S(=O)(=O)N(C)c3ccc([C@H]4C[C@@H](OCC(F)F)C[C@@H](C(=O)Nc5ccc(C(F)(F)F)cc5F)[C@@H]4C(=O)O)cc3)ccc2n1C (relative stereo) [Example 159]" parameter_measured="log10 CC50" observed_measurement=2.30
compound="Cc1nc2cc(S(=O)(=O)N(C)c3ccc([C@H]4CCC[C@@H](C(=O)Nc5ccc(C(F)(F)F)cc5)[C@@H]4C(=O)O)cc3)ccc2n1C [Example 173]" parameter_measured="log10 CC50" observed_measurement=2.80
compound="Cc1nc2cc(S(=O)(=O)N(C)c3ccc([C@H]4C[C@@H](OCC5CCOCC5)C[C@@H](C(=O)Nc5ccc(C(F)(F)F)cc5F)[C@@H]4C(=O)O)cc3)ccc2n1C (stereo in doubt) [Example 355]" parameter_measured="log10 CC50" observed_measurement=2.00
compound="CN(c1ccc([C@H]2CCC[C@@H](C(=O)Nc3ccc(C(F)(F)F)cc3F)[C@@H]2C(=O)O)cc1)S(=O)(=O)c1ccc2c(c1)nc(CCN)n2C [Example 267, hydrochloride]" parameter_measured="log10 CC50" observed_measurement=2.90
compound="Cc1nc2cc(S(=O)(=O)N(C)c3ccc([C@@H]4CCC[C@H](COc5ccc(C(F)(F)F)cc5)[C@H]4C(=O)O)cc3)cc([C@H]3CCCNC3)c2n1C (stereo in doubt) [Example 208, hydrochloride]" parameter_measured="log10 CC50" observed_measurement=3.10
compound="Cc1nc2cc(S(=O)(=O)N(C)c3ccc([C@H]4C[C@@H](N5CCCC(F)(F)C5)C[C@@H](C(=O)Nc5ccc(C(F)(F)F)cc5F)[C@@H]4C(=O)O)cc3)ccc2n1C (relative stereo) [Example 353]" parameter_measured="log10 CC50" observed_measurement=1.60
compound="CN(c1ccc([C@H]2CCC[C@@H](C(=O)Nc3ccc(C(F)(F)F)cc3F)[C@@H]2C(=O)O)cc1)S(=O)(=O)c1ccc2c(c1)nc(N)n2C [Example 266]" parameter_measured="log10 CC50" observed_measurement=2.60
compound="C=CS(=O)(=O)N(C)c1ccc([C@H]2CCC[C@@H](C(=O)Nc3ccc(C(F)(F)F)cc3F)[C@@H]2C(=O)O)cc1 [Example 135]" parameter_measured="log10 CC50" observed_measurement=3.40

Pending compound:
Give me measured log10 CC50, please, for this compound: Cc1nc2cc(S(=O)(=O)N(C)c3ccc([C@H]4CCC[C@@H](C(=O)Nc5ccc(C6CCC6)cc5F)[C@@H]4C(=O)O)cc3)ccc2n1C [Example 175]
3.20
